- System under test: UniProt:Q47764
- Sequence (Q47764 1-182): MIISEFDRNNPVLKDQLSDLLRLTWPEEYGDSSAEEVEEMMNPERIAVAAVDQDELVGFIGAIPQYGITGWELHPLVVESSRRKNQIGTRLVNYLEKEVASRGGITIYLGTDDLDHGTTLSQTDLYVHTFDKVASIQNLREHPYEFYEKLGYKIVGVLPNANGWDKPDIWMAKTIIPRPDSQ
- Assay notes: AAC6′-Ii inhibition assay (DTDP-coupled, varying AcCoA)
- Assay type: biochemical
- Set-up: made in house; host or cells: Escherichia coli BL21
- Recorded conditions: AAC(6′)-Ii [Ki; (μM)], Table 2
Listing of entries alongside the reported Ki.
Measure: Ki (µM)

[[record]]
compound = "CC(C)(COP(=O)(O)OP(=O)(O)OCC1OC(n2cnc3c(N)ncnc32)C(O)C1OP(=O)(O)O)C(O)C(=O)NCCC(=O)NCCSCC(=O)NCC1OC(OC2C(N)CC(N)C(O)C2OC2OC(CO)C(O)C2O)C(N)C(O)C1O (centres unmarked)"
number = 0.119

[[record]]
compound = "CC(C)(COP(=O)(O)OP(=O)(O)OCC1OC(n2cnc3c(N)ncnc32)C(O)C1OP(=O)(O)O)C(O)C(=O)NCCC(=O)NCCSCCC(=O)NCC1OC(OC2C(N)CC(N)C(O)C2O)C(N)C(O)C1O (centres unmarked) [Compound 10b]"
number = 0.043

[[record]]
compound = "CC(C)(COP(=O)(O)OP(=O)(O)OCC1OC(n2cnc3c(N)ncnc32)C(O)C1OP(=O)(O)O)C(O)C(=O)NCCC(=O)NCCSCCCCC(=O)NCC1OC(OC2C(N)CC(N)C(O)C2O)C(N)C(O)C1O (centres unmarked) [Compound 10d]"
number = 7.99

[[record]]
compound = "CC(C)(COP(=O)(O)OP(=O)(O)OCC1OC(n2cnc3c(N)ncnc32)C(O)C1OP(=O)(O)O)C(O)C(=O)NCCC(=O)NCCSCC(=O)NCC1OC(OC2C(N)CC(N)C(O)C2O)C(N)C(O)C1O (centres unmarked) [Compound 10a]"
number = 0.076

[[record]]
compound = "CC(C)(COP(=O)(O)OP(=O)(O)OCC1OC(n2cnc3c(N)ncnc32)C(O)C1OP(=O)(O)O)C(O)C(=O)NCCC(=O)NCCSCCCC(=O)NCC1OC(OC2C(N)CC(N)C(O)C2O)C(N)C(O)C1O (centres unmarked) [Compound 10c]"
number = 0.161


Measured values drawn from patent US7626005B2 for this set.
